- ASSAYED SYSTEM: 5-HT1A receptor (Sus scrofa, UniProt A0A4X1UTF5)
- Construct: Swine hippocampus was homogenized in a 50 mM Tris-Hcl buffer; from tissue; host or cells: swine hippocampus, membrane fraction
- PROTOCOL DETAILS: Affinity for serotonin 1A receptor: inhibition of [3H]MPPF binding in swine hippocampal membrane fraction
- CONDITION CONTEXT: low affinity IC50 divided by high affinity IC50; 1 or smaller = no intrinsic activity, 2 or greater = intrinsic activity
MEASURED ATTRIBUTE: L/H ratio

I. CCc1nc2cc(CCN3CCC(n4ccc5ccc(C(N)=O)cc54)CC3)c(OC)cc2o1
II. CCN1C(=O)CCc2cc(OC)c(CCN3CCC(n4ccc5ccc(C(N)=O)cc54)CC3)cc21
Prompt: Out of I and II , name the one with the higher L/H ratio. Returns: label corresponding to the selected item.
Response: I
(I: 1, II: 0.6)

----------
- ASSAYED SYSTEM: 5-HT1A receptor (Sus scrofa, UniProt A0A4X1UTF5)
- Construct: Swine hippocampus was homogenized in a 50 mM Tris-Hcl buffer; from tissue; host or cells: swine hippocampus, membrane fraction
- Sequence (A0A4X1UTF5 1-422): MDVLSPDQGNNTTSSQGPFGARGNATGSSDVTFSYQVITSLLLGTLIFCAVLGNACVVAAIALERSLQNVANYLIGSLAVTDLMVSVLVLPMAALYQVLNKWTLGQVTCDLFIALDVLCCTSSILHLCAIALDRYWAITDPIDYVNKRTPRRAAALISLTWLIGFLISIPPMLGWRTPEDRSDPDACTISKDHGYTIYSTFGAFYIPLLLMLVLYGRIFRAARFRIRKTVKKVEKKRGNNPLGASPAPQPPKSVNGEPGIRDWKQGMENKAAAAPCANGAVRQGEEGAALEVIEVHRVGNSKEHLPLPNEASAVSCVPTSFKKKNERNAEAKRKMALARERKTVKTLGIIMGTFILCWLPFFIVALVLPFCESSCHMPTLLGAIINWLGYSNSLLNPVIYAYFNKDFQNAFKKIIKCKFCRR
- PROTOCOL DETAILS: Affinity for serotonin 1A receptor: inhibition of [3H]MPPF binding in swine hippocampal membrane fraction
- CONDITION CONTEXT: [3H]MPPF 0.5 nM, swine hippocampal membrane, receptor in high affinity (G-protein binding, MgCl2 10 mM) state, 37°C 30 min; read-out: High affinity IC50
pIC50: −log10 of the molar value.
MEASURED ATTRIBUTE: pIC50

// worked examples, pIC50 included
CNC(=O)c1ccc2ccn(C3CCN(CCc4cc5nc(C)oc5cc4OC)CC3)c2c1; 9.74
CNC(=O)c1ccc2ccn(C3CCN(CCc4c(OC)ccc5c4OC(C)(C)CC5=O)CC3)c2c1; 9.70

I. COc1cc2nc(C)oc2cc1CCN1CCC(n2ccc3ccc(C(N)=O)cc32)CC1
II. COc1cc2c(cc1CCN1CCC(n3ccc4ccc(C(N)=O)cc43)CC1)NC(=O)CC2
Prompt: In terms of reported pIC50, does I or II have the smaller number? Returns: label corresponding to the selected item.
Response: I

----------
- ASSAYED SYSTEM: 5-HT1A receptor (Sus scrofa, UniProt A0A4X1UTF5)
- Construct: Swine hippocampus was homogenized in a 50 mM Tris-Hcl buffer; from tissue; host or cells: swine hippocampus, membrane fraction
- PROTOCOL DETAILS: Affinity for serotonin 1A receptor: inhibition of [3H]MPPF binding in swine hippocampal membrane fraction
- CONDITION CONTEXT: [3H]MPPF 0.5 nM, swine hippocampal membrane, receptor in low affinity (G-protein non-binding, Gpp(NH)p 1 mM) state, 37°C 30 min; read-out: Low affinity IC50
MEASURED ATTRIBUTE: IC50 (nM)

COc1cc2ccccc2cc1CCN1CCC(n2ccc3ccc(C(N)=O)cc32)CC1; 0.69

P. COc1cc2c(cc1CCN1CCC(n3ccc4ccc(C(N)=O)cc43)CC1)N(C)CCC2
Q. COc1cc2c(cc1CCN1CCC(n3ccc4ccc(C(N)=O)cc43)CC1)OCCO2
R. COc1cc2c(cc1CCN1CCC(n3ccc4ccc(C(N)=O)cc43)CC1)N(C)C(=O)OC2
S. COc1cc2c(cc1CCN1CCC(n3ccc4ccc(C(N)=O)cc43)CC1)N(C)C(=O)CC2
Prompt: # rank by IC50, ascending (min first) Labels, requested order.
Response: R, Q, S, P

I. COc1cc2c(cc1CCN1CCC(n3ccc4ccc(C(N)=O)cc43)CC1)C(=O)CC(C)(C)O2
II. COc1ccc2c(c1CCN1CCC(n3ccc4ccc(C(N)=O)cc43)CC1)OCCC2O (centres unmarked)
Prompt: Out of I and II , name the one with the higher IC50. Returns: label corresponding to the selected item.
Response: II

P. CNC(=O)c1ccc2ccn(C3CCN(CCc4cc5c(cc4OC)CCN(C)C5=O)CC3)c2c1
Q. COc1ccc2c(c1CCN1CCC(n3ccc4ccc(C(N)=O)cc43)CC1)CC(C)(C)C2=O
R. COc1cc2c(cc1CCN1CCC(n3ccc4ccc(C(N)=O)cc43)CC1)NC(=O)CC2
S. CON=C1CCCc2c1ccc(OC)c2CCN1CCC(n2ccc3ccc(C(N)=O)cc32)CC1
T. CCc1nc2cc(CCN3CCC(n4ccc5ccc(C(N)=O)cc54)CC3)c(OC)cc2o1
Prompt: # rank by IC50, ascending (min first) Labels, requested order.
Response: R, P, T, Q, S

I. COc1ccc2c(=O)c(C)c(C)oc2c1CCN1CCC(n2ccc3ccc(C(N)=O)cc32)CC1
II. COc1ccc2c(c1CCN1CCC(n3ccc4ccc(C(N)=O)cc43)CC1)OCC(C)(C)C2=O
III. CNC(=O)c1ccc2ccn(C3CCN(CCc4c(OC)ccc5nc(C)oc45)CC3)c2c1
IV. COc1ccc2c(c1CCN1CCC(n3ccc4ccc(C(N)=O)cc43)CC1)CCN(C)C2=O
Prompt: Rank by IC50 (largest to smallest). Labels, requested order.
Response: III, II, IV, I
(III: 0.61 nM, II: 0.39 nM, IV: 0.2 nM, I: 0.14 nM)

1. COc1cc2c(cc1CCN1CCC(n3ccc4ccc(C(N)=O)cc43)CC1)C(=O)CCCO2
2. CON=C1CCc2c(CCN3CCC(n4ccc5ccc(C(N)=O)cc54)CC3)c(OC)cc(OC)c21
Prompt: In terms of reported IC50, does 1 or 2 have the smaller number? Returns: label corresponding to the selected item.
Response: 2
(2: 0.1 nM, 1: 0.16 nM)

P. COc1cc2onc(C)c2cc1CCN1CCC(n2ccc3ccc(C(N)=O)cc32)CC1
Q. CON=C1CCCOc2cc(OC)c(CCN3CCC(n4ccc5ccc(C(N)=O)cc54)CC3)cc21
Prompt: In terms of reported IC50, does P or Q have the smaller number? Returns: label corresponding to the selected item.
Response: Q

A. COc1ccc2nc(C)oc2c1CCN1CCC(n2ccc3ccc(C(N)=O)cc32)CC1
B. COc1cc2c(cc1CCN1CCC(n3ccc4ccc(C(N)=O)cc43)CC1)C(=O)N(C)CCO2
Prompt: Out of A and B , name the one with the higher IC50. Returns: label corresponding to the selected item.
Response: A
(A: 0.34 nM, B: 0.13 nM)

a. COc1ccc2ccccc2c1CCN1CCC(n2ccc3ccc(C(N)=O)cc32)CC1
b. COc1ccc2c(c1CCN1CCC(n3ccc4ccc(C(N)=O)cc43)CC1)OC(C)(C)CC2=O
c. COc1ccc2c(c1CCN1CCC(n3ccc4ccc(C(N)=O)cc43)CC1)OCCO2
d. CNC(=O)c1ccc2ccn(C3CCN(CCc4cc5nc(C)oc5cc4OC)CC3)c2c1
Prompt: # rank by IC50, ascending (min first) Labels, requested order.
Response: b, d, c, a

----------
- ASSAYED SYSTEM: 5-HT1A receptor (Sus scrofa, UniProt A0A4X1UTF5)
- Construct: Swine hippocampus was homogenized in a 50 mM Tris-Hcl buffer; from tissue; host or cells: swine hippocampus, membrane fraction
- Sequence (A0A4X1UTF5 1-422): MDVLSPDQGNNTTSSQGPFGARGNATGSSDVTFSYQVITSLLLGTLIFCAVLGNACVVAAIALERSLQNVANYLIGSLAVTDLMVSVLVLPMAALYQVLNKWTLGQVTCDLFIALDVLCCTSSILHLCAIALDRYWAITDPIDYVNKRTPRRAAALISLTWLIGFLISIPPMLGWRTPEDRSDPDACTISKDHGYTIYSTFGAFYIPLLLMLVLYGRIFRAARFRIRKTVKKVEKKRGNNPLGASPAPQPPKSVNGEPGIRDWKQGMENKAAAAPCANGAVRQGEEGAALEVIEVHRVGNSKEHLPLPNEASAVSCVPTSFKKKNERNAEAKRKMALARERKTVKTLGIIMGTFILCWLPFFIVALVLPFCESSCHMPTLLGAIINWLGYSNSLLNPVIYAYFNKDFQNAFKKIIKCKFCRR
- PROTOCOL DETAILS: Affinity for serotonin 1A receptor: inhibition of [3H]MPPF binding in swine hippocampal membrane fraction
- CONDITION CONTEXT: [3H]MPPF 0.5 nM, swine hippocampal membrane, receptor in high affinity (G-protein binding, MgCl2 10 mM) state, 37°C 30 min; read-out: High affinity IC50
- Text: (1) The affinity of a test substance for a 5-HT1A receptor was examined by an inhibition experiment, in which the inhibitory effect of the test substance against the binding of [^3H]-4-(2′-methoxy)phenyl-1-(2′-(N-2″-pyridinyl)-p-fluorobenzamido)ethyl-piperazine (MPPF) that selectively binds to the 5-HT1A receptor in a swine hippocampal membrane fraction was examined. The 5-HT1A receptor that is a G-protein binding receptor becomes a G-protein binding state with addition of MgCl2. […]
MEASURED ATTRIBUTE: IC50 (pM)

// worked examples, IC50 included
COc1cc2c(cc1CCN1CCC(n3ccc4ccc(C(N)=O)cc43)CC1)C(=O)N(C)CCO2 [Compound 9]; 170
CCn1c(=O)oc2cc(OC)c(CCN3CCC(n4ccc5ccc(C(N)=O)cc54)CC3)cc21 [Compound 60]; 280
COc1cc2c(cc1CCN1CCC(n3ccc4ccc(C(N)=O)cc43)CC1)N(C(C)=O)CCC2 [Compound 52]; 220
COc1cc2c(cc1CCN1CCC(n3ccc4ccc(C(N)=O)cc43)CC1)C(=O)N(C)CC2 [Compound 33]; 170
NC(=O)c1ccc2ccn(C3CCN(CCc4ccc(F)cc4)CC3)c2c1 [Compound A, reference compound]; 100
COc1cc2c(cc1CCN1CCC(n3ccc4ccc(C(N)=O)cc43)CC1)N(C)C(=O)CC2 [Compound 57]; 180
COc1ccc2ncccc2c1CCN1CCC(n2ccc3ccc(C(N)=O)cc32)CC1 [Compound 30]; 200
COc1ccc2c(c1CCN1CCC(n3ccc4ccc(C(N)=O)cc43)CC1)CCN(C)C2=O [Compound 34]; 260

1. COc1ccc2c(c1CCN1CCC(n3ccc4ccc(C(N)=O)cc43)CC1)OCCC2O (centres unmarked) [Compound 46]
2. COc1ccc2nc(C)oc2c1CCN1CCC(n2ccc3ccc(C(N)=O)cc32)CC1 [Compound 3]
3. COc1cc2nc(C)sc2cc1CCN1CCC(n2ccc3ccc(C(N)=O)cc32)CC1 [Compound 28]
Prompt: Rank by IC50 (largest to smallest). Labels, requested order.
Response: 2, 1, 3

P. COc1cc2c(cc1CCN1CCC(n3ccc4ccc(C(N)=O)cc43)CC1)N(C)CCC2 [Compound 53]
Q. CNC(=O)c1ccc2ccn(C3CCN(CCc4cc5c(cc4OC)CCN(C)C5=O)CC3)c2c1 [Compound 38]
R. COc1cc2c(cc1CCN1CCC(n3ccc4ccc(C(N)=O)cc43)CC1)N(C)C(=O)OC2 [Compound 39]
Prompt: # rank by IC50, ascending (min first) Labels, requested order.
Response: R, Q, P

P. COc1ccc2c(=O)ccoc2c1CCN1CCC(n2ccc3ccc(C(N)=O)cc32)CC1 [Compound 35]
Q. COc1ccc2c(c1CCN1CCC(n3ccc4ccc(C(N)=O)cc43)CC1)CCC2=O [Compound 25]
R. CON=C1CCCc2c1ccc(OC)c2CCN1CCC(n2ccc3ccc(C(N)=O)cc32)CC1 [Compound 19]
Prompt: Rank by IC50 (largest to smallest). Labels, requested order.
Response: R, P, Q
(R: 1100 pM, P: 270 pM, Q: 180 pM)
